All figures here come from paper PMC6201908.

Tested Target: human recombinant NK1 receptors (Homo sapiens)
Sequence (P25103 whole entry): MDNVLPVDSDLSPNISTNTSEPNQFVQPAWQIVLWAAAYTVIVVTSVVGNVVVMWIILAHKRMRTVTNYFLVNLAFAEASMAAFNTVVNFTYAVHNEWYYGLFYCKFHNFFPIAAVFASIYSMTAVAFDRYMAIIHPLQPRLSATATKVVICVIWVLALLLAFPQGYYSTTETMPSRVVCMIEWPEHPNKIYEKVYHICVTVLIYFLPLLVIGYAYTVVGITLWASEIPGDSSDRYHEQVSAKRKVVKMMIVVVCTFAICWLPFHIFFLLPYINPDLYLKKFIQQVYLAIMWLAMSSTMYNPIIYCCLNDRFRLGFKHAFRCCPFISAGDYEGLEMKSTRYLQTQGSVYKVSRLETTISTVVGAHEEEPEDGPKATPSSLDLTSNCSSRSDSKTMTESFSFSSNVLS
Experiment Summary: cell-based
Experimental Conditions: NK1 EC50 intracellular calcium response, CHO-hNK1 cells
pEC50: −log10 of the molar value. Non-standard residues stand in square brackets, D forms with d. Residues, ends and D or L forms follow the SMILES beside them. Nle = CCCC[C@H](N)C(=O)O; βAla = NCCC(=O)O

Molecule: CSCC[C@H](NC(=O)[C@H](CC(C)C)NC(=O)CNC(=O)[C@@H](NC(=O)[C@H](Cc1ccccc1)NC(=O)[C@H](CCCNC(=N)N)NC(=O)[C@@H](N)CC(=O)O)C(C)C)C(N)=O [[Arg^5]-NKA(4–10), Asp-Arg-Phe-Val-Gly-Leu-Met-NH2] (H-DRFVGLM-NH2)
pEC50: 9.80
--
Molecule: CCCC[C@H](NC(=O)[C@H](CC(C)C)NC(=O)CNC(=O)[C@@H](NC(=O)[C@H](Cc1ccccc1)NC(=O)[C@H](CCCNC(=N)N)NC(=O)[C@@H](N)CC(=O)O)C(C)C)C(N)=O [[Arg^5,Nle^10]-NKA(4–10), Asp-Arg-Phe-Val-Gly-Leu-Nle-NH2] (H-DRFVGL[Nle]-NH2)
pEC50: 8.77
--
Molecule: CSCC[C@H](NC(=O)[C@H](CC(C)C)NC(=O)CNC(=O)[C@@H](NC(=O)[C@H](Cc1ccccc1)NC(=O)[C@H](CCCCN)NC(=O)[C@@H](N)CC(=O)O)C(C)C)C(N)=O [[Lys^5]-NKA(4–10), Asp-Lys-Phe-Val-Gly-Leu-Met-NH2]
pEC50: 9.39
--
Molecule: CSCC[C@H](NC(=O)[C@H](CC(C)C)NC(=O)CCNC(=O)[C@@H](NC(=O)[C@H](Cc1ccccc1)NC(=O)[C@H](CO)NC(=O)[C@@H](N)CC(=O)O)C(C)C)C(N)=O [[β-Ala^8]-NKA(4–10), Asp-Ser-Phe-Val-[β-Ala]-Leu-Met-NH2] (H-DSFV[βAla]LM-NH2)
pEC50: 7.33
--
Molecule: CSCC[C@H](NC(=O)[C@H](CC(C)C)NC(=O)CCNC(=O)[C@@H](NC(=O)[C@H](Cc1ccccc1)NC(=O)[C@H](CCCCN)NC(=O)[C@@H](N)CC(=O)O)C(C)C)C(N)=O [[Lys^5,β-Ala^8]-NKA(4–10), Asp-Lys-Phe-Val-[β-Ala]-Leu-Met-NH2] (H-DKFV[βAla]LM-NH2)
pEC50: 8.20
--
Molecule: CSCC[C@H](NC(=O)[C@H](CC(C)C)NC(=O)CCNC(=O)[C@@H](NC(=O)[C@H](Cc1ccccc1)NC(=O)[C@H](CCCNC(=N)N)NC(=O)[C@@H](N)CC(=O)O)C(C)C)C(N)=O [[Arg^5,β-Ala^8]-NKA(4–10), Asp-Arg-Phe-Val-[β-Ala]-Leu-Met-NH2] (H-DRFV[βAla]LM-NH2)
pEC50: 8.74
--
Molecule: CCCC[C@H](NC(=O)[C@H](CC(C)C)N(C)C(=O)CNC(=O)[C@@H](NC(=O)[C@H](Cc1ccccc1)NC(=O)[C@H](CCCCN)NC(=O)[C@@H](N)CC(=O)O)C(C)C)C(N)=O [[Lys^5,MeLeu^9,Nle^10]-NKA(4-10), Asp-Lys-Phe-Val-Gly-Leu(NMe)-Nle-NH2]
pEC50: 7.81
--
Molecule: CCCC[C@H](NC(=O)[C@H](CC(C)C)NC(=O)CCNC(=O)[C@@H](NC(=O)[C@H](Cc1ccccc1)NC(=O)[C@H](CCCCN)NC(=O)[C@@H](N)CC(=O)O)C(C)C)C(N)=O [[Lys^5,β-Ala^8,Nle^10]-NKA(4–10), Asp-Lys-Phe-Val-[β-Ala]-Leu-Nle-NH2] (H-DKFV[βAla]L[Nle]-NH2)
pEC50: 7.11
--
Molecule: CCCC[C@H](NC(=O)[C@H](CC(C)C)NC(=O)CNC(=O)[C@@H](NC(=O)[C@H](Cc1ccccc1)NC(=O)[C@H](CCCCN)NC(=O)[C@@H](N)CC(=O)O)C(C)C)C(N)=O [[Lys^5,Nle^10]-NKA(4–10), Asp-Lys-Phe-Val-Gly-Leu-Nle-NH2]
pEC50: 8.63
--
Molecule: CCCC[C@H](NC(=O)[C@H](CC(C)C)NC(=O)CCNC(=O)[C@@H](NC(=O)[C@H](Cc1ccccc1)NC(=O)[C@H](CCCNC(=N)N)NC(=O)[C@@H](N)CC(=O)O)C(C)C)C(N)=O [[Arg^5,β-Ala^8,Nle^10]-NKA(4–10), Asp-Arg-Phe-Val-[β-Ala]-Leu-Nle-NH2] (H-DRFV[βAla]L[Nle]-NH2)
pEC50: 7.53
